assayInfo: Hygroscopicity at room temperature (weight gain and visual phase transition after 24 hours at controlled RH)
Type: physicochemical
settings: 55% RH, room temperature, 24 hours
Protocol: Hygroscopicity of salts of invention were measured by placing 20-50 mg of the sample in an uncapped scintillation vial. The vial was stored at ambient temperature in a Pyrex brand desiccator (VWR, International, CT). […] The relative humidity was confirmed using a digital hygrometer pen (VWR International, CT). An empty scintillation vial was also placed in the desiccator as a control. […] Visual observation of phase transition was also noted.
Param threshold (3%) applies to % weight gain; output fulfilled when value >= threshold, not fulfilled when value < threshold.

Answered examples (2):
O=C(O)CCC(=O)C(=O)O [ketoglutarate]: fulfilled
CC(C)c1nc(CN(C)C(=O)N[C@@H](CCN2CCOCC2)C(=O)N[C@H](CC[C@H](Cc2ccccc2)NC(=O)OCc2cncs2)Cc2ccccc2)cs1 [citrate]: fulfilled

Hello, I need to know if CC(C)c1nc(CN(C)C(=O)N[C@@H](CCN2CCOCC2)C(=O)N[C@H](CC[C@H](Cc2ccccc2)NC(=O)OCc2cncs2)Cc2ccccc2)cs1.CCS(=O)(=O)O has measured % weight gain not below 3%. Thanks!
fulfilled

Same lookup for CC(C)c1nc(CN(C)C(=O)N[C@@H](CCN2CCOCC2)C(=O)N[C@H](CC[C@H](Cc2ccccc2)NC(=O)OCc2cncs2)Cc2ccccc2)cs1.O=C(O)C(=O)O.O=C(O)C(=O)O [oxalate] , please.
fulfilled

One more compound: CC(C)c1nc(CN(C)C(=O)N[C@@H](CCN2CCOCC2)C(=O)N[C@H](CC[C@H](Cc2ccccc2)NC(=O)OCc2cncs2)Cc2ccccc2)cs1.O=C1NS(=O)(=O)c2ccccc21 [saccharinate]
not fulfilled
